# Test target: SpsB (Staphylococcus aureus)
# Construct: using a bacterial membrane fraction as a source of SpsB; from tissue
# Sequence (P0A070 whole entry): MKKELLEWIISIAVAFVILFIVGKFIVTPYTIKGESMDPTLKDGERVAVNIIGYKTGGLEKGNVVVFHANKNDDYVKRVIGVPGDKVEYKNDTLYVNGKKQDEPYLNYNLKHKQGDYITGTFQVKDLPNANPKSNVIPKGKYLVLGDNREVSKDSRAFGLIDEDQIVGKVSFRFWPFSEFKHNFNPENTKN
# Assay name: Inhibition of SpsB enzyme activity (fluorescence-based assay, bacterial membrane fraction)
# Assay type: biochemical
pIC50: −log10 of the molar value.
Give pIC50 for every item shown.

For orientation, consider the following solved cases.
Compound | Reported
CCCCCCCCCCc1ccc2cc(C(=O)NCCC(=O)N[C@@H](CCCCN)C(=O)N(C)[C@@H]3C(=O)N[C@@H](C)C(=O)N[C@H](C(=O)O)Cc4ccc(O)c(c4)-c4cc3ccc4O)ccc2c1.O=C(O)C(F)(F)F [EXAMPLE 17, trifluoroacetate] | > 8.00
CCCCCCCc1ccc2cc(C(=O)NCCC(=O)N[C@@H](CCCCN)C(=O)N(C)[C@@H]3C(=O)N[C@@H](C)C(=O)N[C@H](C(=O)O)Cc4ccc(O)c(c4)-c4cc3ccc4O)cnc2c1 | 7.30 to 8.00
CCCCCCCc1ccc(-c2ccc(C(=O)NCCC(=O)N[C@@H](CCCCN)C(=O)N(C)[C@@H]3C(=O)N[C@@H](C)C(=O)N[C@H](C(=O)O)Cc4ccc(O)c(c4)-c4cc3ccc4O)cc2)cc1 | > 8.00

Would you kindly look at the next entry?
Which measured pIC50 belongs to CCCCCCCCCc1ccc(-c2ccc(C(=O)NCCC(=O)N[C@@H](CCCCN)C(=O)N(C)[C@@H]3C(=O)N[C@@H](C)C(=O)N[C@H](C(=O)O)Cc4ccc(O)c(c4)-c4cc3ccc4O)cn2)cc1 , tested on SpsB (Staphylococcus aureus)?
> 8.00
